The measured values listed here are drawn from patent US20200199102A1.

Target: Cyclophilin A (Homo sapiens)
Construct: made in house
Sequence (P62937 whole entry, species assumed): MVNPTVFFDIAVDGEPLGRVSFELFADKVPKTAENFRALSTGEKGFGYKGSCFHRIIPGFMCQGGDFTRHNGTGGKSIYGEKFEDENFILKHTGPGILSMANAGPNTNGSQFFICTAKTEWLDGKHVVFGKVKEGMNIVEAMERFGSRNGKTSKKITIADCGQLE
Experiment: AlphaLISA inhibition of binding of biotinylated Cyclosporin A to FLAG tagged Cyclophilin A
Conditions: test concentration not given
Where a SMILES comes first, the peptide text is derived from it. [ ]: non-standard residue; d: D form. MeBmt = C/C=C/C[C@@H](C)[C@@H](O)[C@H](NC)C(=O)O; NMeT = CN[C@H](C(=O)O)[C@@H](C)O; NMeL = CN[C@@H](CC(C)C)C(=O)O; dNMeV = CN[C@@H](C(=O)O)C(C)C; Tle = CC(C)(C)[C@H](N)C(=O)O; NMeV = CN[C@H](C(=O)O)C(C)C; NMeA = CN[C@@H](C)C(=O)O; Abu = CC[C@H](N)C(=O)O; Sar = CNCC(=O)O
Listing of entries alongside the reported % inhibition of CsA binding to Cyclophilin A.
measure: % inhibition of CsA binding to Cyclophilin A (%)

compound: C/C=C/C[C@@H](C)[C@@H](O)[C@H]1C(=O)N[C@@H](CC)C(=O)N(C)CC(=O)N(C)[C@H](C(C)C)C(=O)N[C@@H](C(C)(C)C)C(=O)N(C)[C@@H](C)C(=O)N[C@@H](CC(C)C)C(=O)N[C@H](C)C(=O)N(C)[C@@H](CC(C)C)C(=O)N(C)[C@@H](CC(C)C)C(=O)N(C)[C@@H](C(C)C)C(=O)N1C [Compound C79] (cyclo([MeBmt][Abu][Sar][dNMeV][Tle][NMeA]L[dA][NMeL][NMeL][NMeV]))
uom: %
observed result: 96.76
//
compound: C/C=C/C[C@@H](C)[C@@H](O)[C@H]1C(=O)N[C@@H](CC)C(=O)N(C)CC(=O)N(C)[C@@H](C)C(=O)N[C@@H](C(C)C)C(=O)N(C)[C@@H](C)C(=O)N[C@@H](C)C(=O)N[C@H](C)C(=O)N(C)[C@@H](CC(C)C)C(=O)N(C)[C@@H](CC(C)C)C(=O)N(C)[C@@H](C(C)C)C(=O)N1C [Compound C2] (cyclo([MeBmt][Abu][Sar][NMeA]V[NMeA]A[dA][NMeL][NMeL][NMeV]))
uom: %
observed result: 94.75
//
compound: C/C=C/C[C@@H](C)[C@@H](O)[C@H]1C(=O)N[C@@H](CC)C(=O)N(C)CC(=O)N(C)[C@@H]([C@@H](C)O)C(=O)N[C@@H](C(C)C)C(=O)N(C)[C@@H](CC(C)C)C(=O)N[C@@H](CC(C)C)C(=O)N[C@H](C)C(=O)N(C)[C@@H](CC(C)C)C(=O)N(C)[C@@H](CC(C)C)C(=O)N(C)[C@@H](C(C)C)C(=O)N1C [Compound C51] (cyclo([MeBmt][Abu][Sar][NMeT]V[NMeL]L[dA][NMeL][NMeL][NMeV]))
uom: %
observed result: 96.62
